Sourced from patent US20230203060A1

// values below are reported pIC50
target: KRAS G12C (Homo sapiens, UniProt P01116, G12C); test: KRAS G12C NEA-HTRF experiment (SOS1-catalyzed displacement of GDP by GTP)
Sequence (P01116 1-188 isoform P01116-2 G12C): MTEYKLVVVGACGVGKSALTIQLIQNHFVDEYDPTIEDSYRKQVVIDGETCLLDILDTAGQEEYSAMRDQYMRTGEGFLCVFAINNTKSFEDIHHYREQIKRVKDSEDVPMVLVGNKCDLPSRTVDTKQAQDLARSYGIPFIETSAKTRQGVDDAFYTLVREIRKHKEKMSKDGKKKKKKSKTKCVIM
Quick note: pIC50 means taking -log10 of the concentration in moles per liter.

Some compounds with known pIC50 results, for comparison:
compound=C=CC(=O)N1CCN2C(=O)c3c(N4CCN(C)C(C)(C)C4)nc(-c4c(O)cccc4F)c(Cl)c3OC[C@H]2C1 assayed_target="KRAS G12C (Homo sapiens, UniProt P01116, G12C)" recorded_number=6.82
compound="C=CC(=O)N1CCN2C(=O)c3c(N4C[C@@H](CO)CC4(C)C)nc(-c4c(O)cccc4F)c(Cl)c3OC[C@H]2C1 (single isomer, unassigned)" assayed_target="KRAS G12C (Homo sapiens, UniProt P01116, G12C)" recorded_number=7.96

In: Could you share what pIC50 was measured for C=CC(=O)N1CCN2C(=O)c3c(N4CC[C@H](OC)C4(C)C)nc(-c4c(O)cccc4F)c(Cl)c3OC[C@H]2C1 (single isomer, unassigned) [Z241a-1] , tested on KRAS G12C (Homo sapiens, UniProt P01116, G12C)?
Out: 7.89
